target: SARS-CoV1 Spike [change] (SARS-CoV-1, UniProt P59594 14-667); test: Octet BLI, IgG, monovalent

# BINDER, binding result
measured = [
    ("A-23.3 (antibody, V domains shown) VH: EVQLVESGGGLVQPGRSLRLSCAASGFTFDDYAMHWVRQAPGKGLEWVSGTSWNSGTIGYADSVKGRFIISRDNAKNSLYLQMNSLRGEDMALYYCVKDRKREDPSLGGMDVWGQGTTVTVSS VL: SYVLTQPPSVSVAPGQTARITCGGNNIGSKSVHWYQQKPGQAPVLVVYDDTDRPSGIPERFSGSNSGNTATLTISRVEAGDEADYYCQVWDSSSDDYVFGTGTKVTVL", "no binding"),
    ("A-24.2 (antibody, V domains shown) VH: EVQLVESGGGLVKPGRSLRLSCAASGFTFADYTMSWFRQAPGKGLEWVGFIRSEPYGGTTEYAASVKGRFTISRDDSKSIAYLQMNSLKTEDTAVYYCSRDPWYCSGGDCYAVTGSWFDPWGQGTLVTVSS VL: DIQMTQSPSSLSASVGDRVTITCQASQDIKQYLNWYQQKPGKAPKLLIYDQSNLETGVPSRFSGSGSGTDFTFTISSLQPEDVAIYYCQQYWNLPQTFGQGTKVEIK", "no binding"),
    ("A-23.1 (antibody, V domains shown) VH: EVQLVESGGGLVQPGRSLRLSCAASGFTIDDYAMHWVRQAPGKGLEWVSGISWNGGTIGYADSVKGRFIISRDNAKNSLYLQMNSLRGEDMALYYCGKDRKREDPSLGGMDVWGQGTTVTVSS VL: SYVLTQPPSVSVAPGQTARITCLGNNIGSKSVHWYQQKPGQAPVLVVYDDTDRPSGIPERFSGSNSGNTATLTISRVEAGDEADYYCQVWDSESDHYVFGTGTKVTVL", "no binding"),
]
